- run description: small-molecule binders of probe aInhba, primary screen, biochemical, small-molecule microarray, 635/667 nm fluorescence (AID 1148);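 further: score merges 667nm spot fluorescence with signal-to-noise for antibody binding to printed compounds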
- assay context: higher = more signal
experimental endpoint: composite z-score
Just the number, please.

Q: Annotate the molecule `[N-]=[N+]=NCc1ccccc1C[C@]1(C(=O)O)N=C(c2ccc(OCCCO)cc2)O[C@H]1c1ccccc1N=[N+]=[N-]` with its measured composite z-score.
Ans: 0.199

Q: Annotate the molecule [N-]=[N+]=Nc1ccccc1C[C@]1(C(=O)NCC(O)CO)N=C(c2ccc(OCCCO)cc2)O[C@H]1c1ccccc1N=[N+]=[N-] (some centres undefined) with its measured composite z-score.
Ans: 0.192

Q: Annotate the molecule O=C1OCCC/C=C\[C@H]2OC34C=CCN(c5ccc6ccccc6c5)C(=O)[C@H]3N(CCCCCCO)C(=O)[C@@H]4C12 (some centres undefined) with its measured composite z-score.
Ans: -0.128

Q: Annotate the molecule `[N-]=[N+]=Nc1ccccc1C[C@]1(C(N)=O)N=C(c2ccc(OCCCO)cc2)O[C@H]1c1ccccc1` with its measured composite z-score.
Ans: 0.0516

Q: Annotate the molecule `C=CCOC(=O)[C@H]1[C@@H]2C(=O)O[C@@H](c3ccccc3)[C@@H](c3ccccc3)N2[C@@H](c2ccc(OCCOC(=O)[C@H]3C[C@H]4C(=O)N[C@@H](CC(C)C)C(=O)N4[C@H]3c3ccc(O)cc3)cc2)[C@]12C(=O)Nc1ccc(I)cc12` with its measured composite z-score.
Ans: -0.0695

Q: Annotate the molecule `C=C[C@H](COC(C)=O)N(C(=O)OC(C)(C)C)S(=O)(=O)c1ccc(Br)cc1` with its measured composite z-score.
Ans: 0.898

Q: Annotate the molecule `CC(C)N1C(=O)c2ccccc2[C@](C)(C(=O)NCc2ccccc2)[C@@H]1c1ccc(CO)cc1` with its measured composite z-score.
Ans: -0.154

Q: Annotate the molecule `COCCOC(=O)N1C(=O)[C@@]2(c3cc(C#Cc4ccc(OC)cc4)ccc31)[C@H](c1ccccc1OCCO)N1[C@H](c3ccccc3)[C@H](c3ccccc3)OC(=O)[C@H]1[C@@H]2C(=O)N1CCN(c2ncccn2)CC1` with its measured composite z-score.
Ans: -0.0405

Q: Annotate the molecule `COCCOC(=O)N1C(=O)[C@@]2(c3cc(C#CC4=CCCCC4)ccc31)[C@H](C(=O)Nc1nc3ccccc3s1)[C@H]1C(=O)O[C@H](c3ccccc3)[C@H](c3ccccc3)N1[C@@H]2c1ccc(OCCO)cc1` with its measured composite z-score.
Ans: -0.0221

Q: Annotate the molecule `COC(=O)[C@@]1(Cc2ccccc2)[C@H]2c3cc(C(=O)N4CCCC4)n(CC4CC4)c3C[C@H]2CN1C(=O)c1ccccc1` with its measured composite z-score.
Ans: 1.06

Q: Annotate the molecule `CCOC(=O)C=Cc1cc([N+](=O)[O-])ccc1O` with its measured composite z-score.
Ans: -0.0523

Q: Annotate the molecule O=C1NC(=O)C2C1C=CC(C(O)c1ccccc1)N2Nc1ccc(Cl)cc1Cl (centres undefined) with its measured composite z-score.
Ans: 0.225

Q: Annotate the molecule `C=C(CCCC)C(=O)CC[C@H](OC(=O)c1cccnc1)c1ccccc1OCCO` with its measured composite z-score.
Ans: -0.128

Q: Annotate the molecule `COc1ccc(CCNC(=O)[C@@]2(Sc3ccc(C)cc3)CC(=O)N(C3CCCCC3)[C@@H]2c2ccc(CO)cc2I)cc1` with its measured composite z-score.
Ans: 0.0391
